System: DeltatarO mutant
PROTOCOL_TEXT: S. aureus survival, RN4220 and DeltatarO strains – OD600, teichoic acid synthesis inhibitors, primary screen (AID 463173)
CONDITIONS_USED: S. aureus RN4220 wild type/DeltatarO growth, OD600, 18 h, active compounds read low, screened at 18.75 µg/mL (by protocol)
Screen size: about 52,000 compounds; about 4,300 (8.3%) were called active. What follows is part of a selection rich in actives, with near analogues and random picks from the rest.
MEASUREMENT_KIND: survival (%)
Field format: number, assumed %, no unit text.

# survival (compound: Cc1occc1C(=O)NN=C1c2ccccc2-c2ccccc21 ) is 69

# survival (compound: NC(=O)C1CCN(C(=O)c2cc(-c3ccccc3)on2)CC1 ) is 98

# survival (compound: CN(C(=O)c1cc(-c2ccccc2)on1)C1CCCCC1 ) is 91

# survival (compound: CN(C(=O)c1cc(-c2ccccc2O)on1)c1ccccc1 ) is 40

# survival (compound: O=C(c1cc(-c2cccc(Cl)c2)on1)N1CCN(c2ccccc2)CC1 ) is 23

# survival (compound: CC1CCN(C(=O)c2cc(-c3cccc(Cl)c3)on2)CC1 ) is -15
